# Test system: HL-60(TB) leukemia
# Assay Name: NCI-60 one-dose screen, 48 h
# Settings: 10 µM unless noted
Compounds without any hit were thinned out: in the full panel of roughly 83,000, 20% have a hit. Calls of active or inactive are those of the source. How the source made its calls: active means growth percent below 10; inactive means the rest.
Give your call using only these classes: active, inactive

- Compound: "COc1ccc2c(c1)/C(=C\\c1sc(=S)[nH]c1O)C(C(=O)O)=N2"
  Qualitative Label: "inactive"
- Compound: "NS(=O)(=O)c1ccc(CCn2c(SCC(=O)N/N=C/c3cc4ccccc4[nH]3)nc3ccccc3c2=O)cc1"
  Qualitative Label: "inactive"
- Compound: "CC(=O)c1cccc(N(C)S(=O)(=O)c2ccc(C)cc2)c1"
  Qualitative Label: "inactive"
- Compound: "O=C(O)CC1Cc2ccccc2C1C(=O)O (centres undefined)"
  Qualitative Label: "inactive"
- Compound: "Cc1cccc(Cc2cnc(NC(=O)CCc3ccc(C)o3)s2)c1"
  Qualitative Label: "active"

Any idea what this test logged for "O=C(/C=C/c1c(Cl)nc2sccn12)c1ccc(F)c(F)c1" ?
inactive

Kindly provide the recorded test outcome for the following compound: "O=c1[nH]c2cc(Cl)c(Cl)cc2n2cc3ncccc3c12"
inactive

Outcome logged for O=C1CSC(c2c(Cl)cccc2Cl)N1c1nc(Cl)cc(=O)[nH]1 (centres undefined) in this assay:
inactive

Outcome? "Nc1cc(C(=O)NC[C@H]2CN(c3ccc(N4CCC(C(=O)O)CC4)cc3)C(=O)O2)ccc1Cl"
inactive

Could you kindly confirm the outcome this assay logged for CCC(C)C1NC(=O)C(CCCCN)NC(=O)C(CCCCN)NC(=O)C(CC(C)C)NC(=O)C(CCCCN)NC(=O)C(C(C)CC)NC(=O)C(C(C)C)NC(=O)C(C(C)CC)NC(=O)C(CCCCN)NC(=O)C(CCCCN)NC(=O)C(C)NC(=O)C(CCCCN)NC(=O)C(CC(C)C)NC1=O (centres undefined) ?
active

Short answer needed: outcome of this test for "CCCCC(=O)Nc1ncc(Cc2ccccc2Cl)s1" ?
active

For "CCCCCCCCCCCCCCCC(=O)OC[C@@]1(O)C[C@@]23CC[C@@H]4C(C)(C)[C@H](O)CC[C@@]4(C)[C@@H]2CC[C@H]1C3" , what call appears in the results of this test?
inactive

Entry CN1C(=O)C2(SCC(C(=O)NCc3ccccc3)N2C(=O)C2CCCCC2)c2ccccc21 (centres undefined) : call = ?
inactive

For O=C1NC(=O)C(Cc2ccc(OCc3ccc(-c4ccc(Cl)cc4Cl)cc3)cc2)S1 (centres undefined) , which call appears in the assay record?
inactive

How did this test come out for "N#Cc1ccc(N2Cc3cc(Cl)ccc3OC3=C2C(=O)N(Cc2ccc(F)cc2)C3=O)cc1" ?
active

// outcome(item) with item = "CCOC(=O)c1c(O)cc(-c2ccccc2)cc1-c1sc(N(C)Cc2ccccc2)nc1Cl"
inactive

GET /call?item= "CCOc1ccc(NC(=O)Nc2ccc(OCC)cc2)cc1" returns the recorded outcome of this test.
inactive

For "Cc1nc2ccccc2c(/C=C/c2ccc(Cl)cc2)c1C(=O)/C=C/c1ccc(C(F)(F)F)cc1" , which call appears in the assay record?
active

Returns: the outcome recorded for "O=C1Cc2cc(O)ccc2O1" in this assay.
inactive

====

# Tested on: U251 CNS
# Assay Name: NCI-60 one-dose screen, 48 h
# Settings: 10 µM unless noted
This is part of a sample that, as a whole, favours compounds with a hit. Of some 83,000 tested, about 20% had one in any assay. Activity calls are given as the source filed them. The calls were made as follows: active = growth percent below 10; inactive = the rest.
Lab note: assign the record to one of active, inactive

- Compound: "C1CNC2CCCC2C1 (stereo not drawn)"
  Qualitative Label: "inactive"
- Compound: "C[C@@H]1O[C@@H](O[C@H]2CC[C@@]3(C)[C@H](CCC4[C@@H]3C(O)C[C@]3(C)[C@@H](c5ccc(=O)oc5)CC[C@]43O)C2)[C@H](O)[C@H](O)[C@H]1O (stereo partly drawn)"
  Qualitative Label: "active"
- Compound: "COc1cc(C2CC(=O)Nc3nc(N)[se]c32)c(OC)c2c1OCO2 (stereo not drawn)"
  Qualitative Label: "inactive"
- Compound: "CCN(CC)c1ccc(C=C2C(=O)NC(=S)NC2=O)cc1"
  Qualitative Label: "inactive"

In this assay, the call recorded for "c1cnc2c(c1)ccc1ncccc12" was what?
inactive

Test call, this compound: O=C1C=CC(=O)C2C1C1(Cl)C(Cl)=C(Cl)C2(Cl)C1(Cl)Cl (stereo not drawn)
inactive

How was "CC[CH2][Pb]([CH2]CC)([CH2]CC)[O]C(=O)C(F)(F)F" classified in this test?
active

====

# System: ACHN renal
# Assay Name: NCI-60 one-dose screen, 48 h (100 = growth as untreated, 0 = no growth, -100 = all killed)
# Settings: 10 µM unless noted
About 83,000 compounds went through this panel and 20% of them were active in at least one assay; those are over-represented in the sample as a whole.
Parameter: growth (%)
Write the value in % as a bare number.

- Molecule: "O=c1cc[nH]c(=O)o1"
  Number: 115
- Molecule: "O=C(NCCNC(=O)c1ccc([As](O)O)cc1)c1ccc([As](O)O)cc1"
  Number: 106
- Molecule: "Cc1cccc(N=C2c3cc([N+](=O)[O-])ccc3-c3c2cc([N+](=O)[O-])cc3[N+](=O)[O-])c1"
  Number: 59.3

Notebook: pull reported growth for ACHN renal, entry "c1ccc2nc(OCCN3CC3)ccc2c1"
88

So what growth did C=CCN1C(=O)C(CC)(CCC(C)C)C(=O)NC1=S (stereo not drawn) get with ACHN renal?
110

Param readout= growth; system= ACHN renal; entry= "COc1cc(C2(C#N)CCN(C)CC2)cc(OC)c1OC" ; returns value.
98.5

Give the reported growth for "Cc1ccccc1O" (system: ACHN renal).
103

GET /values?readout=growth&system=ACHN renal&item= CC(=O)C1CCC2C3CC=C4CC(OC(=O)Cc5ccc(N(CCCl)CCCl)cc5)CCC4(C)C3CCC12C (stereo not drawn)
100

====

# System: EKVX NSCLC
# Assay Name: NCI-60 one-dose screen, 48 h (100 = growth as untreated, 0 = no growth, -100 = all killed)
# Settings: 10 µM unless noted
This is part of a sample that, as a whole, favours compounds with a hit. Of some 83,000 tested, about 20% had one in any assay.
Parameter: growth (%)
State the answer as a number, implicitly in %.

Observe how each entry below is paired with its result.
- Molecule: "c1ccc(CCN2CCCCC2Cc2ccccc2)cc1 (stereo unspecified)"
  Unit Spec: "%"
  growth: 93.4
- Molecule: "CCCCCCCCCCCCOc1ccc(C(=O)Oc2ccc(CSP3(=O)OCC4OC(n5cnc6c(N)ncnc65)C(F)C4OP(=O)(O)OCC4OC(n5ccc(=O)[nH]c5=O)C(F)C4O3)cc2)cc1 (stereo unspecified)"
  Unit Spec: "%"
  growth: 107

Given the molecule "CC(C)OC(=S)[S-].[Au+].c1ccc([PH+](c2ccccc2)c2ccccc2)cc1" , what is its reported growth?
82.9

Given "COC(C)(C)CCC[C@H](C)C/C=C/C(C)=C/C(=O)OC(C)C" , state its recorded growth.
78.1

Tell me the measured growth of N#CC1c2ccccc2C=CN1C(=O)c1ccc(N(CCCl)CCCl)cc1 (stereo unspecified) , please.
86.8

====

# Test system: HL-60(TB) leukemia
# Assay Name: NCI-60 one-dose screen, 48 h
# Settings: 10 µM unless noted
# Description: Growth inhibition of the HL-60(TB) human tumor cell line is measured as a screen for anti-cancer activity. Cells are grown in 96 well plates and exposed to the test compound for 48 hours. Compounds are tested at a single concentration, which is 10^-5 M for most compounds. The reported endpoint is percent growth (GI% or GIPRCNT), where numbers from 0 - 100% represent growth inhibition, and numbers from -100% - 0 represent cell death. For example, a value of 40 represents 60% growth inhibition. […]
This is part of a sample that, as a whole, favours compounds with a hit. Of some 83,000 tested, about 20% had one in any assay. The source made the active and inactive calls. How the source made its calls: active means growth percent below 10; inactive means the rest.
The categories you may choose from are active, inactive

Examples with answers:
- Compound: "CCOC(=O)c1cc(C(=O)c2ccc(OC)c(OC)c2)n2c1ccc1ccccc12"
  Qualitative Label: "inactive"
- Compound: "CC(=O)N(CC(O)CO)c1c(I)c(C(=O)NCCO)c(I)c(C(=O)NCC(O)CO)c1I (configuration not stated)"
  Qualitative Label: "inactive"
- Compound: "Cc1cccc2c(=O)c3c(sc12)c(N1CCNCC1)nc1ccccc13"
  Qualitative Label: "inactive"
- Compound: "O=C(N/N=C/c1ccncc1)c1ccc(C(F)(F)F)nc1Nc1cccc(C(F)(F)F)c1"
  Qualitative Label: "active"
- Compound: "CCCC1CCCCN1C(=O)OCC(C)C (configuration not stated)"
  Qualitative Label: "inactive"
- Compound: "COc1cc(C2CC(c3ccccc3)=NN2C=O)ccc1Oc1nc2c(c(=O)n(C)c(=O)n2C)n1C (configuration not stated)"
  Qualitative Label: "inactive"
- Compound: "CNC(=O)c1cc(Oc2ccc3nc(NC(=O)Nc4ccc(F)cc4F)sc3c2)ccn1"
  Qualitative Label: "inactive"
- Compound: "COc1cc2cc3c(nc2cc1OC)CCN3Cc1ccc(NC(=O)c2ccc(Cl)c(C(F)(F)F)c2)cc1"
  Qualitative Label: "inactive"

Call for entry N#CC1=C(N)Oc2c(c(N)nn2-c2ccccc2)C1c1ccc(Cl)cc1 (configuration not stated) :
inactive

Dear colleague, could you share the recorded outcome for "O=C(Nc1ccc(N2CCCCC2)c(Cl)c1)c1ccc(Br)o1" when you have a moment?
inactive

Could you check what this test reported for "Fc1cc(-c2cnc3nonc3n2)c(Cl)cc1Cl" ?
active

Test call, this compound: O=C(C(=O)N1CCOCC1)c1ccc(OC2OC(CO)C(O)C(O)C2O)cc1 (configuration not stated)
inactive

Status in this test for "CC1(C)OC(=O)C(c2ccsc2)C(=O)O1" ?
inactive

Just curious, what result did CC(C)(C)OC(=O)Nc1ccc2c(c1)C(NC(=O)Nc1cccc(C#N)c1)CC(C)(C)O2 (configuration not stated) get here?
active

Hi team, can someone confirm the assay call for "Nc1c(C(=O)Nc2cccc(Cl)c2)sc2ncc(Cl)cc12" ?
inactive

Could you please tell me the result logged for "O=C(NCCCl)Nc1ncccc1OCc1ccccc1" in this assay?
inactive
